Data provenance: patent US20260167959A1

This listing pairs molecules with measured Fold change in RNA expression between the ON state and the OFF state.
test system: Renilla luciferase RNA; assay: Barcoded aptazyme variant library screen: un-cleaved Renilla luciferase RNA by barcode read counts, HEK293-T cells; assay type: cell-based; conditions: un-cleaved Renilla luciferase RNA, HEK293-T cells cultured with 1 mM theophylline (ON) over without theophylline (OFF); barcode read counts, triplicate
PROPERTY_MEASURED: Fold change in RNA expression between the ON state and the OFF state

{"MOLECULE": "RA115 (nucleic acid, expressed or natural sequence) DNA: GCGCGTCCTGGATTCGCGGAAACGCGTACATCCAGCTGACGAGTCCCAAATAGGACGAGAATACCAGCATCGTCTTGATGCCCTTGGAAGTCTAAACGCGC", "RESULT": "1.5 fold"}
{"MOLECULE": "RA298 (nucleic acid, expressed or natural sequence) DNA: GCCGGAATACCAGCATCGTCTTGATGCCCTTGGAAGTCCGGCGTCCTGGATTCGCGGAAACGCGTACATCCAGCTGACGAGTCCCAAATAGGACGAAACGCGC", "RESULT": "1.0 fold"}
{"MOLECULE": "RA158 (nucleic acid, expressed or natural sequence) DNA: GCGCGTCCTGGATTCGCGGAAACGCGTACATCCAGCTGACGAGTCCCAAATAGGACGAGTGATACCAGCATCGTCTTGATGCCCTTGGCAGCACTAAACGCGC", "RESULT": "1.3 fold"}
{"MOLECULE": "RA015 (nucleic acid, expressed or natural sequence) DNA: GCGCGTCCTGGATTCGCGGCGGAATACCAGCATCGTCTTGATGCCCTTGGAAGTCCGAAACGCGTACATCCAGCTGACGAGTCCCAAATAGGACGAAACGCGC", "RESULT": "3.0 fold"}
{"MOLECULE": "RA136 (nucleic acid, expressed or natural sequence) DNA: GCGCGTCCTGGATTCGCGGAAACGCGTACATCCAGCTGACGAGTCCCAAATAGGACGAAACGGAGAATACCAGCATCGTCTTGATGCCCTTGGAAGTCTCCGC", "RESULT": "1.4 fold"}
{"MOLECULE": "RA049 (nucleic acid, expressed or natural sequence) DNA: GCGCGTCCTGGATTCGCGGAAACGCGTACATAGAATACCAGCATCGTCTTGATGCCCTTGGAAGTCTCCAGCTGACGAGTCCCAAATAGGACGAAACGCGC", "RESULT": "2.0 fold"}
{"MOLECULE": "RA117 (nucleic acid, expressed or natural sequence) DNA: GCGCGTCCTGGATCGGAATACCAGCATCGTCTTGATGCCCTTGGAAGTCCGTCGCGGAAACGCGTACATCCAGCTGACGAGTCCCAAATAGGACGAAACGCGC", "RESULT": "1.5 fold"}
{"MOLECULE": "RA057 (nucleic acid, expressed or natural sequence) DNA: GCGCGTCCTGGATTCGCGGAAACGCGTACATCCAGCTGACGAGTCCCAAATAGGACAGAATACCAGCATCGTCTTGATGCCCTTGGAAGTCTGAAACGCGC", "RESULT": "2.0 fold"}
{"MOLECULE": "RA167 (nucleic acid, expressed or natural sequence) DNA: GCGCGTCCTGGATTCGCGGAAACGCGTACATCCAGGGAATACCAGCATCGTCTTGATGCCCTTGGAAGTCCCTGACGAGTCCCAAATAGGACGAAACGCGC", "RESULT": "1.3 fold"}
{"MOLECULE": "RA149 (nucleic acid, expressed or natural sequence) DNA: GCGCGGAGAATACCAGCATCGTCTTGATGCCCTTGGAAGTCTCTCCTGGATTCGCGGAAACGCGTACATCCAGCTGACGAGTCCCAAATAGGACGAAACGCGC", "RESULT": "1.4 fold"}
{"MOLECULE": "RA073 (nucleic acid, expressed or natural sequence) DNA: GCGCGTCCTGGATTCGCGGAAACGCGTACACGGAATACCAGCATCGTCTTGATGCCCTTGGAAGTCCGTCCAGCTGACGAGTCCCAAATAGGACGAAACGCGC", "RESULT": "1.8 fold"}
{"MOLECULE": "RA259 (nucleic acid, expressed or natural sequence) DNA: GCGCGTCCTGGATTCGCGGAAACGCGTACATCCAGCTGACGAGTCCCAAATAGGACGAAAAGTGATACCAGCATCGTCTTGATGCCCTTGGCAGCACTCGCGC", "RESULT": "1.1 fold"}
{"MOLECULE": "RA280 (nucleic acid, expressed or natural sequence) DNA: GCGCGTCCTGGATTCGCGGAAACGCGTACATCCAGCTGACGAGTCCCAAATAGGAGGAATACCAGCATCGTCTTGATGCCCTTGGAAGTCCCGAAACGCGC", "RESULT": "1.0 fold"}
{"MOLECULE": "RA041 (nucleic acid, expressed or natural sequence) DNA: GCGCGTCCTGGATTCGCGGAAACGCGAGTGATACCAGCATCGTCTTGATGCCCTTGGCAGCACTTACATCCAGCTGACGAGTCCCAAATAGGACGAAACGCGC", "RESULT": "2.1 fold"}
